assay-info: Plasma concentration of statins in mice
Type: in vivo
experimental-conditions: male, mouse, oral, AngII-infused SmgGDS+/+ mice, 24 hours after last of 2-week gavage, atorvastatin 10 mg/kg/day, pravastatin 50 mg/kg/day, read-out: Plasma concentration of statin
Experimental: Furthermore, the present inventors administrated each statin by gavage for 2 weeks from the start of AngII administration ([…], 10 mg/kg/day or pravastatin, 50 mg/kg/day) to the each group of mouse. The present inventors measured plasma concentration of statins 24 hours after the last administration (Table 3).
measured-metric: concentration at 24 h (ng/mL)
Give a bare numeral; the unit ng/mL is implied.

Asked: Recorded concentration at 24 h of "CC[C@H](C)C(=O)O[C@H]1C[C@H](O)C=C2C=C[C@H](C)[C@H](CC[C@@H](O)C[C@@H](O)CC(=O)O)[C@H]21" , please.
Given back: 0.43

Cited source: patent US20130065226A1
